Target: hMPV B2 F monomer (human metapneumovirus)
Assay: ELISA on coated recombinant protein, OD 405 nm
Mark y for EC50 under 0.1 µg/mL, n if at or over.

Does MPV414 (antibody, V domains shown) VH: QVQLVQSGPEVKKPGSSVMVSCKTSGGNFNNFAISWVRQAPGQGLEWMGGIVPIFGTANYAQKSQDRVTITADPSSSTAYLQLSSLTSDDTAIYYCARDLGRSSNYYYYSVFESWGQGTLVTVSS VL: DIVMTQSPATLSLSPGERATLSCRASQSVGDKLAWYQQKPGQAPRLLIYGASTRATDIPARFSGSGSGTEFTLTVSSLQPEDFAVYYCQQYENWPPITFGQGTRLEIK have EC50 strictly under 0.1 µg/mL?
n

A record lists MPV467 (antibody, V domains shown) VH: EVQLVESGGGVVRPGTSLRVSCAAFDFNFRDYGMHWVRQAPGKGLEWVAGIWYDGSNKDYADSVKGRFTISRDNSQNTLYLQMNSLRVEDTAVYYCARDPRTHREGALSHFDSWGQGTLVTVSS VL: PNELTQDPAVSVALGQTVRITCQGDSLRNYFAGWYQQKPGQAPLLVLYGENIRPSGIPDRFSGSSSGNTVSLTITGAQAEDEADYYCNSRDNSGNHWVFGGGTRLTVL . Is its EC50 below 0.1 µg/mL?
y

Hello, is EC50 of the following binder strictly smaller than 0.1 µg/mL? MPV483 (antibody, V domains shown) VH: EVQLVQSGAELKKPGSSVKVSCKASGDTFSNYAISWVRQAPGQGLEWMGGIIPIYNTANYAQKFQGRVTLTADESTSTAYMELSSLRSEDTAVYYCARDVRNNWSVLRGARYYYYGMDVWGQGTTVTVSS VL: DIVMTQTPFSLSASVGDRVTVTCRASQDISNSLAWFQQKPGKAPKSLIYAASSLQSGVPTRFSGGGSGTDFTLTISSLQPEDFATFYCLQYDSFPPTFGGGTKVEI
n

API: query returns whether the binder falls strictly under 0.1 µg/mL in EC50. Query: MPV489 (antibody, V domains shown) VH: EVQLLESGGGLVQPGGSLRLSCAASKFTFNNYEMNWLRQAPGKGLEWVSSISSSGDTIHNADSVKGRFIISRDNAKNSLHLQMNGLRAEDTAVYYCARAGSGWAYDAFDIWGLGTMVTVSS VL: LSASVGDRVTITCRASQSISSFLNWYQQKPGKAPKLLMYAASSLPVGVPSRFSGSGSGPEYTLTISNLQPEDFATYYCQQGYSSPPTFGGGTRLEVK
n
